Each entry below lists one item and its recorded protein stability index value.
B1: ZNF649 (parent)
chain: YQAGKPDALTKLEQGEPLWTLEDE

Variants of: B1
Experiment: protein stability index of a GFP-peptide fusion (GPS, HEK-293T) (PSI 1-6); higher = more stable;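 note: lentivirally expressed fusions sorted by FACS into six bins by GFP to DsRed ratio, PSI derived from sequencing read proportions per bin multiplied by bin number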
Settings: c terminus: a fixed tail appended
Would you mind answering with just the numeric figure?

Some entries whose results are on file:
>>> observed("W19D")
5.31
>>> observed("A3V")
4.42
>>> observed("A8G")
4.87
>>> observed("W19M")
4.87
>>> observed("E24Q")
4.02

Using the record for `Q14D` , report its protein stability index.
4.67

Report protein stability index for `T20E` please.
5.14

Fill blank: measured protein stability index of the variant `G4R` is ____.
3.53

Source of measurements: the supplement of paper PMC10567573
